Numbers sourced from patent US12522588B2.

Tested on: Echinochloa crus-galli (ECHCG)
assay info: Post-emergence test, glasshouse
Format: in vivo
condition info: comparative test, 250 g/ha
measured property: percentage damage caused to the plant, ECHCG

Check out these entries, answers already filled in.
Consider the compound FC(F)(F)c1ccc(-n2nc(C(F)(F)F)cc2Oc2ncc(Cl)cn2)cc1 and give its measured percentage damage caused to the plant, ECHCG.
5 (5=81-100%)

What about FC(F)(F)c1cc(Oc2ncc(Cl)cn2)n(-c2ccc(Cl)cc2)n1 ?
5 (5=81-100%)

What about Cc1cc(Oc2ncc(Cl)cn2)n(-c2ccc(C(F)(F)F)cc2)n1 [Compound C1, reference compound] ?
1 (1=0-20%)

Now turn to the next compound.
Consider the compound Cc1cc(Oc2ncc(Cl)cn2)n(-c2ccc(Cl)cc2)n1 [Compound C2, reference compound] and give its measured percentage damage caused to the plant, ECHCG.
2 (2=21-40%)

###

List of percentage damage caused to the plant, AMARE values.
System: Amaranthus retoflexus (AMARE)
assay info: Post-emergence test, glasshouse
Type: in vivo
condition info: comparative test, 250 g/ha

Check out these entries, answers already filled in.
Consider the compound Cc1cc(Oc2ncc(Cl)cn2)n(-c2ccc(C(F)(F)F)cc2)n1 [Compound C1, reference compound] and give its measured percentage damage caused to the plant, AMARE.
4 (4=61-80%)

What about FC(F)(F)c1ccc(-n2nc(C(F)(F)F)cc2Oc2ncc(Cl)cn2)cc1 ?
5 (5=81-100%)

What about FC(F)(F)c1cc(Oc2ncc(Cl)cn2)n(-c2ccc(Cl)cc2)n1 ?
5 (5=81-100%)

Now turn to the next compound.
Consider the compound Cc1cc(Oc2ncc(Cl)cn2)n(-c2ccc(Cl)cc2)n1 [Compound C2, reference compound] and give its measured percentage damage caused to the plant, AMARE.
3 (3=41-60%)

###

Test system: Ipomoea hederacea (IPOHE)
assay info: Pre-emergence test, glasshouse
Format: in vivo
condition info: 250 g/ha, evaluated after 13 days, Table B2
measured property: percentage damage caused to the plant, IPOHE

Check out these entries, answers already filled in.
Consider the molecule Cc1ncc(-n2nc(C(F)(F)F)cc2Oc2ncc(Cl)cn2)cn1 and give its measured percentage damage caused to the plant, IPOHE.
1 (1=0-20%)

What about FC(F)(F)c1cccc(-n2nc(C(F)(F)F)cc2Oc2ncc(Cl)cn2)c1 ?
1 (1=0-20%)

What about Cc1cnc(Oc2cc(C(F)(F)F)nn2-c2ccc(C(F)(F)F)cc2)nc1 ?
1 (1=0-20%)

What about Cc1ccc(-n2nc(C(F)(F)F)cc2Oc2ncc(Cl)cn2)nn1 ?
1 (1=0-20%)

What about FC(F)c1cc(Oc2ncc(Cl)cn2)n(-c2ccc(C(F)(F)F)cc2)n1 ?
1 (1=0-20%)

What about FC(F)(F)c1cc(Oc2ncc(Cl)cn2)n(-c2ccc(Cl)cc2)n1 ?
1 (1=0-20%)

---
Consider the molecule Cc1ccc(-n2nc(C(F)(F)F)cc2Oc2ncc(Cl)cn2)cc1 and give its measured percentage damage caused to the plant, IPOHE.
1 (1=0-20%)

What about FC(F)(F)c1ccc(-n2nc(C(F)(F)F)cc2Oc2ncc(Br)cn2)cc1 ?
1 (1=0-20%)

###

List of percentage damage caused to the plant, ECHCG values.
Tested on: Echinochloa crus-galli (ECHCG)
assay info: Pre-emergence test, glasshouse
Assay type: in vivo
condition info: comparative test, 250 g/ha

What measured percentage damage caused to the plant, ECHCG is associated with FC(F)(F)c1ccc(-n2nc(C(F)(F)F)cc2Oc2ncc(Cl)cn2)cc1 on Echinochloa crus-galli (ECHCG)?
5 (5=81-100%)

---
What measured percentage damage caused to the plant, ECHCG is associated with Cc1cc(Oc2ncc(Cl)cn2)n(-c2ccc(C(F)(F)F)cc2)n1 [Compound C1, reference compound] on Echinochloa crus-galli (ECHCG)?
1 (1=0-20%)

What about FC(F)(F)c1cc(Oc2ncc(Cl)cn2)n(-c2ccc(Cl)cc2)n1 ?
5 (5=81-100%)

What about Cc1cc(Oc2ncc(Cl)cn2)n(-c2ccc(Cl)cc2)n1 [Compound C2, reference compound] ?
1 (1=0-20%)
